# Assay method text: In vivo pharmacokinetic experiment in mice
# Parameters: species or system CD-1 female mice
# Experimental setup: female, mouse, plasma; CD-1 mice, oral administration 10 mg/kg
We begin with a simple list: items and their reported Cmax.
Numeric only. Scale: ng/mL

Compound	Readout units	Cmax
COc1cc(C(=O)NC2CCC3(CC2)CN(C)C3)c(F)cc1Nc1ncc(C(F)(F)F)c(Oc2cccc3c2C(=O)N(C)C3)n1 [Compound 20]	ng/mL	190

Now consider a different compound.
input: Entry COc1cc(N2CC3(CCN(C)CC3)C2)ccc1Nc1ncc(C(F)(F)F)c(Oc2cccc3c2C(=O)N(C)C3)n1 [Compound 90] : reported Cmax = ?
output: 635
